Molecular target: UniProt P39900
Sequence (P39900 whole entry): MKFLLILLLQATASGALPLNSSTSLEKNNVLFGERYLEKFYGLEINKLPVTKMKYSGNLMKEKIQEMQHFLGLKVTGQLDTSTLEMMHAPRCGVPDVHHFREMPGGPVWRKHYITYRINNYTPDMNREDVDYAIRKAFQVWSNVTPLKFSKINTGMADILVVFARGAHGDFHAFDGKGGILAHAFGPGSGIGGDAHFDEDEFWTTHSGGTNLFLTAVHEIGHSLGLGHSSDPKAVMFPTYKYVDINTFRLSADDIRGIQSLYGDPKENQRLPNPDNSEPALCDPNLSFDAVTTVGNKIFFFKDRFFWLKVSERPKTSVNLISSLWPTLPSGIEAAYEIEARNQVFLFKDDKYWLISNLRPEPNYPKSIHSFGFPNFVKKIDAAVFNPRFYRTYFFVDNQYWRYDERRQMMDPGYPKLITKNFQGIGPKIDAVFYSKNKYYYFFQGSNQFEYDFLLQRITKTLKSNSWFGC
Assay: Inhibition of human recombinant MMP12 using Mca-Pro-Leu-Gly-Leu-Dpa-Ala-Arg-NH2 as substrate incubated for 10 mins prior to substrate addition by spectrophotometry
Details: read-out: Ki(app)
# note: boundary value 2 nM maps to no; Ki below it maps to yes

Please indicate whether the reported Ki of CNC(=O)[C@H](Cc1ccccc1)NC(=O)[C@H](CCc1ccc(-c2cccnc2)cc1)CC(=O)O is strictly below 2 nM.
no

What do you have for CNC(=O)[C@H](Cc1ccccc1)NC(=O)[C@H](CCc1ccc(-c2cccnc2)cc1)CC(=O)NO ?
yes

What do you have for CCN(CC)Cc1cc(C)c(N(Cc2ccccc2)S(=O)(=O)c2ccc(OC)cc2)cc1C(=O)NO ?
no

What do you have for CNC(=O)[C@H](Cc1c[nH]c2ccccc12)NC(=O)[C@@H](CC(=O)NO)CC(C)C ?
no

What do you have for COc1ccc(S(=O)(=O)N2CC(C)(C)CN(S(=O)(=O)c3ccc(OC)cc3)C2C(=O)NO)cc1 ?
yes
